# targetOfAssay: ATP-binding cassette sub-family B member 6 (Homo sapiens) (UniProt Q9NP58)
# Sequence (Q9NP58 whole entry, looked up): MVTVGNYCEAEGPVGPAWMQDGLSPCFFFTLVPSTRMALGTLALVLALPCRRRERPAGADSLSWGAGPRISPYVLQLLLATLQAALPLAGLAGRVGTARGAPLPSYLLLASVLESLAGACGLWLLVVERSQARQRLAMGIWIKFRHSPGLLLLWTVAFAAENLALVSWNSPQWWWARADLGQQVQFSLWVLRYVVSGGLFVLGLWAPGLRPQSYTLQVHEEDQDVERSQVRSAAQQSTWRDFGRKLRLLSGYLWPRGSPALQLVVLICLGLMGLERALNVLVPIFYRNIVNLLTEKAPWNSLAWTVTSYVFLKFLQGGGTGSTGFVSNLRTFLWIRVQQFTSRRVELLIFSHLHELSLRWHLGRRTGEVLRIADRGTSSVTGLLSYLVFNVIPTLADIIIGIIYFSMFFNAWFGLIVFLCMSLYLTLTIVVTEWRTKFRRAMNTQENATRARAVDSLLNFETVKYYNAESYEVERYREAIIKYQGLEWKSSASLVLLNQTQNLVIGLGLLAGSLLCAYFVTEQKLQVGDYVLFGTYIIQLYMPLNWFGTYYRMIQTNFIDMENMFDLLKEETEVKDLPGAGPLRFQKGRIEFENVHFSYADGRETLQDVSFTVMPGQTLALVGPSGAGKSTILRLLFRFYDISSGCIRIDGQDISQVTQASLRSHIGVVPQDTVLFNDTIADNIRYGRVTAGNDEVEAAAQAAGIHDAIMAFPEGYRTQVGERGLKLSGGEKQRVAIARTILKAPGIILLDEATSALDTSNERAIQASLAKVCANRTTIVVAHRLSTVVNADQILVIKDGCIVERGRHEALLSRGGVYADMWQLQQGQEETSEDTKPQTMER
# experiment: ABCB6 transporter inhibitors, pilot screen, K562-ABCB6 cells, flow cytometry, validation set (AID 588550);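 further: 0% = DMSO wells and 100% = benzethonium chloride 70 µM positive control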
# assayContext: K562-ABCB6 porphyrin accumulation, 1 h, at 10 µM, stronger effect = higher value
assayReadout: inhibition (%)
Kindly answer with a numeric value in %, unit omitted.

Check out these entries, answers already filled in.
                                   compound  assayreadout  readoutunit  valuereported
0  CC(C)[N+](C)(CCOC(=O)C1c2ccccc2Oc2ccccc21)C(C)C    inhibition            %              7
1  CCOc1ccc(CC2c3cc(OCC)c(OCC)cc3CCN2C(=O)CN2CCN(C)CC2)cc1OCC (stereo not given)    inhibition            %              4
2  CC(=O)O[C@]1(C(C)=O)CC[C@H]2[C@@H]3C=C(C)C4=CC(=O)CC[C@]4(C)[C@H]3CC[C@@]21C    inhibition            %             -2

Need inhibition, item "CC(C)CCOCC(=O)Nc1cccc(C(=O)O)c1" 3

// lookup inhibition for O=c1c(-c2ccc3c(c2)OCCO3)coc2cc(OC3OC(CO)C(O)C(O)C3O)ccc12 (stereo not given) 8

GET /values?readout=inhibition&item= COc1ccc(CCN=C(N)C(C)c2ccccc2)cc1OC (stereo not given) 5

// query inhibition value for entry COc1ccccc1C1(CC(=O)N2CCCCC2)CCOC(C(C)C)C1 (stereo not given) 6

What does the record list as inhibition for "O=c1[nH]cnc2c1ncn2[C@@H]1O[C@H](CO)[C@@H](O)[C@H]1O" ? 5

// query inhibition value for entry "Cc1nc(C(=O)Nc2ccccc2Cl)cc2c1[nH]c1ccccc12" 11

Which inhibition reading was recorded for the compound "O=C(/C=C/c1ccc(Cl)cc1)NCCc1ccccc1" ? 7

====

# experiment: inhibitors of fungal efflux pumps CDR1, CDR2, MDR1, pilot screen, validation compound set, multiplex, phenotypic (AID 588506);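 further: Nile Red retained in cells so higher fluorescence means more efflux inhibition; 0 = negative control wells and 1 = enniatin B 25 µM full block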
# assayContext: S. cerevisiae pump-expressing triplex, Nile Red efflux flow cytometry; at 10 µM; the pumps come from Candida albicans
Active and inactive are the calls of the source.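 The calls were made as follows: active = efflux inhibition above 0.42, the validation set average plus 4 SD; inconclusive = no clear call, values can overlap the other calls; inactive = the rest.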
Lab note: assign the record to one of true for active, false for inactive

Some entries whose results are on file:
                            substancesmiles  class
0   CCOc1ccc(NC(=O)N[C@@H](CCSC)C(=O)OC)cc1  false
1  CC(=O)O[C@H]1CC[C@H]2[C@@H]3CCc4cc(O)ccc4[C@H]3CC[C@]12C  false

Now look at this one.
Per the assay record, what outcome was assigned to "COc1ccc(CCNC(=O)c2c(O)c3c([nH]c2=O)CCCC3)cc1" ? false

====

Reported GFP response, % of DMSO values follow for various molecules
# experiment: AGP1-GFP expression modulators, hit retest, confirmation, cell-based, flow cytometry, S. cerevisiae, cherry picks (AID 2273);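 further: median GFP channel fluorescence over the whole cell population gate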
# assayContext: S. cerevisiae AGP1-GFP strain, 3 h, at 10 µM
Answer with a number only, understood to be in %.

>>> print(df.to_string())
                                   molecule             assayreadout  valuereported
0  O=C1c2ccccc2C(=O)C2OC12 (stereo not drawn)  GFP response, % of DMSO            133

Look up GFP response, % of DMSO for this molecule: "CCN(CC)CCN(C(=O)c1ccc2c(c1)CCCC2)c1nc2cc(OC)c(OC)cc2s1" 101

Endpoint output: GFP response, % of DMSO of "O=C(c1ccc([N+](=O)[O-])o1)N(Cc1nnc(-c2ccccc2Cl)o1)C1CC1" . Value? 101

What does the data say about its GFP response, % of DMSO? Entry: "c1ccc(-c2n[nH]c3ccccc23)cc1" 92.1

// query GFP response, % of DMSO value for entry "Oc1ccc(Cl)cc1-c1cc(-c2ccco2)[nH]n1" 88.2

# get_value(readout='GFP response, % of DMSO', item= O=C(CS(=O)c1ccccc1[N+](=O)[O-])Oc1ccc(Br)cc1 (stereo not drawn) ) 107

State the recorded GFP response, % of DMSO for this entry: OC1(c2ccc(F)cc2)CSC(=Nc2cccnc2)N1Cc1ccco1 (stereo not drawn) 104

Give its GFP response, % of DMSO value. Item: CCN=C(NCC)SC1CC(=O)N(c2cccc(OCC)c2)C1=O (stereo not drawn) 101

Returns the measured GFP response, % of DMSO for the input molecule. Input: "N/C(=N\OC(=O)c1cccc(Br)c1)c1ccccc1" 64.6

Fill blank: measured GFP response, % of DMSO of the molecule "COC(=O)c1ccc(/C=N/OCC(=O)NCCc2ccc(OC)c(OC)c2)cc1" is ____. 102

Form field: reported GFP response, % of DMSO of "COc1ccc(N=Cc2nc(-c3ccccc3)oc2OC(C)=O)cc1" 94

====

# targetOfAssay: ATP-binding cassette sub-family B member 6 (Homo sapiens) (UniProt Q9NP58)
# experiment: ABCB6 transporter inhibitors, pilot screen, K562-ABCB6 cells, flow cytometry, validation set (AID 588550);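 further: 0% = DMSO wells and 100% = benzethonium chloride 70 µM positive control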
# assayContext: K562-ABCB6 porphyrin accumulation, 1 h, at 10 µM, stronger effect = higher value
assayReadout: inhibition (%)
Write the value in % as a bare number.

                                   compound  readoutunit  valuereported
0  Cc1c(OCC(=O)NC(Cc2c[nH]c3ccc(O)cc23)C(=O)O)ccc2c3c(c(=O)oc12)CCC3 (stereo unspecified)            %             11
1  CC(=O)Nc1nc(CCC(C)C)cc2c1c(=O)oc1ccccc12            %             -8
2       OCC1(CCOc2ccccc2)CCN(CCCn2cccn2)CC1            %              4
3         CNc1nc(Nc2ccccc2)nc(OCC(F)(F)F)n1            %             -3
4  COc1ccc(CCNC(=O)CC(c2ccccc2)c2cccc(C)c2O)cc1OC (stereo unspecified)            %             10

Item under review: COc1cccc(N2CC34C=CC(O3)C(C(=O)O)C4C2=O)c1 (stereo unspecified) . Reported inhibition? 3

Fill in the blank: the reported inhibition of CCCC1O[C@@H]2C[C@H]3[C@@H]4CCC5=CC(=O)C=C[C@]5(C)[C@H]4[C@@H](O)C[C@]3(C)[C@]2(C(=O)CO)O1 (stereo partly specified) is ____. 0

// returns reported inhibition for input "Cn1nc(-c2ccccn2)nc2c(=O)n(C)c(=O)nc1-2" -1

Request the reported inhibition associated with "CCOC(=O)c1cccc(C(=O)OCC)n1" 5

Can you look up the measured inhibition of "COc1ccc(Cl)cc1C(=O)NCCc1ccc(S(=O)(=O)NC(=O)NC2CCCCC2)cc1" for me? 8

Query: inhibition; subject: "CC(C)(C)NC[C@H](O)COc1nsnc1N1CCOCC1" 9

====

# experiment: superoxide lowering in aged yeast cells, pilot screen, validation compound set (AID 2706);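 further: yeast exposed to compound for one week at 30 degrees C before staining; 100% = mean of all compound wells on the same plate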
# assayContext: S. cerevisiae aging, superoxide DHE fluorescence; at 10 µM, stronger effect = lower value
assayReadout: superoxide response (% of plate) (%)
Numeric answer only, unit % assumed.

Worked set:
>>> print(df.to_string())
                                   compound                      assayreadout  valuereported
0                      Cc1nc2ccccc2c(=O)n1N  superoxide response (% of plate)           95.7
1             Nc1nnc(-c2cccc(Cl)c2Cl)c(N)n1  superoxide response (% of plate)            110
2  COc1ccc(OC)c(-n2c(Cn3c(-c4ccccn4)nc4ccccc43)n[nH]c2=S)c1  superoxide response (% of plate)           97.4

Attention now turns to another entry.
So what does the record say about superoxide response (% of plate) for "CCc1cc(=O)oc2cc(OCC=C(C)C)ccc12" ? 89.5

====

# targetOfAssay: ATP-binding cassette sub-family B member 6 (Homo sapiens) (UniProt Q9NP58)
# experiment: ABCB6 transporter inhibitors, pilot screen, K562-ABCB6 cells, flow cytometry, validation set (AID 588550);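 further: 0% = DMSO wells and 100% = benzethonium chloride 70 µM positive control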
# assayContext: K562-ABCB6 porphyrin accumulation, 1 h, at 10 µM
The source made the active and inactive calls.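 How the source made its calls: active means inhibition above the screen-wide mean plus 3 SD, about 51%; inactive means the rest.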
Answer with one of the outcomes given here: active, inactive

>>> print(df.to_string())
                    compound                             targetofassay     class
0  CCOc1ccccc1C(=O)NCCC(=O)O  ATP-binding cassette sub-family B member 6 (Homo sapiens) (UniProt Q9NP58)  inactive

Test call for this compound, please: "Clc1ccc(Cn2c(CN3CCCC3)nc3ccccc32)cc1" inactive

Just curious, what result did "Cc1ccc(NCCC(=O)c2ccccc2)cc1Cl" get here? inactive

What was the test verdict on "NC12CC3CC(CC(C3)C1)C2" ? inactive

Kindly provide the recorded test outcome for the following compound: "Nc1cccc(C(=O)O)c1" inactive

Test call for this compound, please: "CCS(=O)(=O)Nc1cc(OC)c(OC)cc1Cc1nccc2cc(OC)c(OC)cc12" inactive

Recorded test outcome, item CCN(CC)C1=C(Cl)C(=O)C(Cl)C12OCCO2 (centres undefined) inactive

Tell me the recorded outcome of this test for "O=C1N[C@@H](Cc2cnc[nH]2)C(=O)N2CCC[C@@H]12" . inactive

What was the test verdict on "CC1(C)O[C@@H]2C[C@H]3[C@@H]4CCC5=CC(=O)C=C[C@]5(C)[C@@]4(F)[C@@H](O)C[C@]3(C)[C@]2(C(=O)CO)O1" ? inactive

State the result this test recorded for OC(CCN1CCCCC1)(c1ccccc1)C1CCCCC1 (centres undefined) . inactive

What did this assay record as the result for "NCCCC(=O)O" ? inactive

# lookup: test call for "COc1cc(/C=C/C(=O)N2CCCC2)cc(OC)c1OC" inactive

Recorded call for "N=c1ccn(CC(=O)NC(N)=O)c2ccccc12" ? inactive

Lab log entry: COc1ccc(C2(CCN=Cc3ccc(N(C)C)cc3)CCOC(C)(C)C2)cc1 (centres undefined) — outcome as called in the assay? inactive

I would be grateful if you could indicate the recorded call for "Nc1ccc2[nH]ncc2c1" . inactive

Any idea what this test logged for "CCN(CC)C(=O)c1ccc(O)c(OC)c1" ? inactive

What call does the record list for CC(C)NCC(O)COc1ccc(CC(N)=O)cc1 (centres undefined) ? inactive

Source: PubChem BioAssay
